Hi! I'm sharing some pKi results obtained with Amyloid-beta precursor protein (Homo sapiens).
Sequence (P05067 whole entry): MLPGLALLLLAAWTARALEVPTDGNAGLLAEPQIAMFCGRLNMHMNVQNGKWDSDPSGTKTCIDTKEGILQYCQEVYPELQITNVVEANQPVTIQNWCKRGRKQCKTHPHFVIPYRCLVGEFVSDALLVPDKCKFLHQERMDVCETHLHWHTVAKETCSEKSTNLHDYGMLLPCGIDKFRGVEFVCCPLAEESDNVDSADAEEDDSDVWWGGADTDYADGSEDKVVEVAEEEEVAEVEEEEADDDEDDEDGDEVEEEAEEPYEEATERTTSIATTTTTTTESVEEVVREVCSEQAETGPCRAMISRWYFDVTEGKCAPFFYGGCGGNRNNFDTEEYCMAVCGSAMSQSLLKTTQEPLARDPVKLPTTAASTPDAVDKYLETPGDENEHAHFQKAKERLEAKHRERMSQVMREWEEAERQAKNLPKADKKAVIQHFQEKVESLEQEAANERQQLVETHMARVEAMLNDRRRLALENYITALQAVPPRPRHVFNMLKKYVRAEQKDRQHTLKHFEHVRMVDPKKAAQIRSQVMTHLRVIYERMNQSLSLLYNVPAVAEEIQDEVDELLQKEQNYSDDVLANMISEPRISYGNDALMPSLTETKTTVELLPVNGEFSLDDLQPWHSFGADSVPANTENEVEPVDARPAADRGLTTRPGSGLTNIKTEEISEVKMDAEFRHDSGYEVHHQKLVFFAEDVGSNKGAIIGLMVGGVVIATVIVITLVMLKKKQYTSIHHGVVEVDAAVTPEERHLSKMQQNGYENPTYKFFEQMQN
One number for each entry, as −log10 of the molar value.

Some compounds with recorded pKi:
{"compound": "CCN(CC)CCCC(C)Nc1c2ccc(I)cc2nc2ccc(OC)cc12 (centres undefined)", "pKi": 6.45}
{"compound": "COc1ccc2nc3cc(I)ccc3c(OC)c2c1", "pKi": 7.54}

Lab note: measured pKi of CNc1c2ccc(I)cc2nc2ccc(OC)cc12 was 7.86

====

Tested on: Pancreas
protocol-notes: Biodistribution in ddY mouse pancreas at 0.1 to 0.4 uCi, iv after 10 mins by gamma counting
Type: ADME, organism-based
experimental-setup: in vivo
property-name: Drug uptake (% ID/g)
Give bare numbers, in % ID/g.

Record excerpt, results attached:
{"compound": "COc1c2ccc([125I])cc2nc2ccc(N(C)C)cc12", "Drug uptake (% ID/g)": 2.47}
{"compound": "CCN(CC)CCCC(C)Nc1c2ccc([125I])cc2nc2ccc(OC)cc12 (stereo unspecified)", "Drug uptake (% ID/g)": 5.85}
{"compound": "COc1ccc2nc3cc([125I])ccc3c(N)c2c1", "Drug uptake (% ID/g)": 11.52}
{"compound": "COc1ccc2nc3cc([125I])ccc3c(OC)c2c1", "Drug uptake (% ID/g)": 2.03}
{"compound": "COc1ccc2nc3cc([125I])ccc3c(N(C)C)c2c1", "Drug uptake (% ID/g)": 6.5}

Lab note: measured Drug uptake of CNc1c2ccc([125I])cc2nc2ccc(OC)cc12 was 6.92
